Examples of molecules with documented MIC follow.
test system: Enterococcus faecalis; test: Minimum inhibitory concentration determination, Example 1 (Table 7); format: cell-based; conditions: Enterococcus faecalis, read-out: concentration at which organism was found to be susceptible
State the answer as a number, implicitly in µg/mL.

Worked cases, answers included:
CC[C@H]1OC(=O)[C@H](C)[C@@H](O[C@H]2C[C@@](C)(OC)[C@@H](O)[C@H](C)O2)[C@H](C)[C@@H](O[C@@H]2O[C@H](C)C[C@H](N(C)C)[C@H]2O)[C@](C)(O)C[C@@H](C)C(=O)[C@H](C)[C@@H](O)[C@]1(C)O [Erythromycin]    4
CO[C@H]1/C=C/O[C@@]2(C)Oc3c(C)c(O)c4c(O)c(c(/C=N/N5CCN(C)CC5)c(O)c4c3C2=O)NC(=O)/C(C)=C\C=C\[C@H](C)[C@H](O)[C@@H](C)[C@@H](O)[C@@H](C)[C@H](OC(C)=O)[C@@H]1C [Rifampin]    2
CC(=O)OCC1=C(C(=O)O)N2C(=O)[C@@H](NC(=O)Cc3cccs3)[C@H]2SC1 [Cephalothin, Cephalotin]    16

From here, focus on the item given below.
query: Report measured MIC; entry is CN(C)C1C(=O)C(C(N)=O)=C(O)C2(O)C(=O)C3=C(O)c4c(O)cccc4C(C)(O)C3CC12 (stereo not shown) [Tetracycline]
result: 128
